So I've got a bunch of molecules here, and I need their growth values.
- Test system: NCI-H23 lung
- measurement-description: NCI-60 one-dose screen, 48 h (100 = growth as untreated, 0 = no growth, -100 = all killed)
- test-settings: 10 µM
The panel holds about 83,000 compounds, 20% with a hit somewhere; the sample as a whole holds those more often.
Numbers only, in %.

[[record]]
molecule = "O=C(Cn1cc(CSc2nnc3oc4ccccc4n23)nn1)Nc1cccc(Cl)c1"
data_value = 60.2

[[record]]
molecule = "C=CC(=O)Nc1ccc(C(=O)/C=C/c2ccc(N(C)CCF)cc2)c(O)c1"
data_value = -26.7

[[record]]
molecule = "O=C1CCC(N2Cc3c(NCc4ccc(-c5ccccc5)cc4)cccc3C2=O)C(=O)N1 (stereo unspecified)"
data_value = 72.9

[[record]]
molecule = "COC1=C[C@]23CCC(=O)N2CCc2cc4c(cc2[C@@H]3[C@@H]1OC(=O)CCCC(C)C)OCO4"
data_value = 53.2


Each of the following entries comes with a recorded value; kindly state growth for each.
1. Nc1cccnc1/C=N/NC(=S)NCCNC(=O)c1ccc(-n2nc(-c3ccccc3O)nc2-c2ccccc2O)cc1
2. CCN1CCN(Cc2ccc(NC(=O)c3cccc(-n4cc(-c5ccc(NC(C)=O)nc5)nn4)c3)cc2C(F)(F)F)CC1
3. COc1ccc2[nH]c(=O)c(CSc3cccc(N)c3)cc2c1

Result block:
1. -1.31
2. 93
3. 79.2

Provide each entry's growth from the list below.
1. C#Cc1ccc(S(=O)(=O)Nc2cccc(-c3csc(NC(C)=O)n3)c2)cc1
2. O=c1oc2ccc(-c3ccc(F)cc3F)cc2c(=O)n1-c1ccc(F)c(Cl)c1
3. N#Cc1ccc(-c2nn(-c3ccc(C(=O)O)cc3)cc2CNc2ccc(Oc3ccccc3)cc2)cc1
4. CC1(c2ccccc2)NC(=O)N(CC(=O)Nc2ccc(C(=O)/C=C/c3ccccc3)cc2)C1=O (stereo unspecified)

Result block:
[65.2, -49.8, 12, 65.5]

Batch request: growth for each of the following molecules.
1. CCCCCCCCCCCCCCCCCCCC(=O)NCCc1c[nH]c2ccc(OC(=O)NOCCOCCOCCOCCOCCOCCOCCOCCOCCOCCOCCOCCOCCOCCOCCOCCOCCOCCOCCOCCOCCOCCOC)cc12
2. CO[C@H]1CSS[C@@H]1Cn1nc(-c2ccc(Oc3ccccc3)cc2)c2c(N)ncnc21
3. CCOC(=O)C1=C(N)N(c2ccccc2)C2=C(C(=O)CC(C)(C)C2)C1c1ccccc1OC (stereo unspecified)
4. c1ccc(C(=C(c2ccc(OCCN3CCCCC3)cc2)c2ccc(OCCN3CCCCC3)cc2)C2CCCC2)cc1
5. CN1CCN(c2ccc(C(=O)/C=C/c3cc(C(F)(F)F)ccc3Cl)cc2)CC1

Result block:
1. 9.6
2. 40.4
3. 98.3
4. -81
5. -95.3

----------
- Test system: SF-268 CNS
- measurement-description: NCI-60 one-dose screen, 48 h
- test-settings: 10 µM
About 83,000 compounds went through this panel and 20% of them were active in at least one assay; those are over-represented in the sample as a whole. Calls of active or inactive are those of the source. Rule for the calls: active = growth percent below 10; inactive = the rest.
Hello, when you answer, please use one of the following outcomes: Y = active, N = inactive

[[record]]
compound = "Cc1ccc(C(=O)CSc2nnc(-c3c[nH]c4ccccc34)n2-c2ccccc2)cc1"
cat = "N"

[[record]]
compound = "Oc1ccc(/C=C2\\CCCc3cc4ccc(O)cc4[o+]c32)c(O)c1"
cat = "N"

[[record]]
compound = "CC(=O)Nc1nc(-c2ccc(N3CCN(C)CC3)c(NS(=O)(=O)c3ccc(C(F)(F)F)cc3)c2)cs1"
cat = "N"


Query block: Hi, sorry to bother you, what did the test record for `COc1ccc2[nH]c(O)c(N=NC(=O)COc3ccc(NC(=O)Nc4ccc(Cl)c(Cl)c4)cc3)c2c1` ?
Result block: N

Query block: Would you mind telling me which call this test gave `COc1cc2c3c(n(CCCNC(C)C)c(=O)c2cc1OC)-c1nc2c(cc1C3=O)OCO2` ?
Result block: Y

Query block: Call for entry `O=C(CNc1nc(-c2ccccc2)cs1)Nc1ccc(Br)cc1` :
Result block: Y

Query block: # lookup: test call for `O=C(Cn1cc(CSc2nnc3oc4ccccc4n23)nn1)Nc1ccc(Br)cc1`
Result block: N

Query block: State the result this test recorded for `CCOC(=O)CNC(=O)CN(Cc1ccccc1)C(=O)[C@@]1(C)CCC[C@]2(C)[C@H]3CC4C(C(C)C)=C[C@]3(CC[C@H]21)[C@@H]1C(=O)CCC(=O)[C@H]41` .
Result block: N

Query block: Assay outcome for `O=S(=O)(c1ccc(Cl)cc1)c1nc(-c2ccccc2)oc1S(=O)(=O)c1ccc(Cl)cc1` : what was it?
Result block: N

Query block: Recorded test outcome, item `CN1CCc2c(sc3ncnc(N/N=C/c4ccc5ccccc5c4)c23)C1`
Result block: N

Query block: Write down the call the test reported for this compound. Item: `C/C(=C\CC/C=C(\C)CC/C=C(\C)CC[C@@H](O)C(C)(C)O)CC/C=C(\C)CC[C@@H](O)C(C)(C)O`
Result block: N

Query block: Which outcome was entered for the compound `CCCCSc1nc(Nc2ccc(/C(C)=N/NC(N)=S)cc2)c(C#N)c(-c2ccc(F)cc2)n1` in this test?
Result block: N

Query block: How did this test come out for `COc1cccc(-c2nn(-c3ccccc3)cc2-c2ccnc(NCCCNC(=O)Nc3ccc(F)cc3)c2)c1` ?
Result block: N

----------
- Test system: HOP-62 NSCLC
- measurement-description: NCI-60 one-dose screen, 48 h (100 = growth as untreated, 0 = no growth, -100 = all killed)
- test-settings: 10 µM
This is part of a sample that, as a whole, favours compounds with a hit. Of some 83,000 tested, about 20% had one in any assay.
Record form. Attribute: growth. Fill in for each entry.
Give bare numbers, in %.

[[record]]
query_smiles = "COc1ccc2[nH]c(=O)c(CSc3cccc(N)c3)cc2c1"
data_value = 61.5

[[record]]
query_smiles = "CCN1CCN(c2ccc(NC(=O)Nc3ccc(-c4cc(C(=O)NC(C)C)c5ncccc5n4)cc3)cc2C(F)(F)F)CC1"
data_value = -87.8

[[record]]
query_smiles = "CC1=N/C(=C\\c2ccc(N(C)C)cc2)C(=O)N1CCc1ccc(S(N)(=O)=O)cc1"
data_value = 84.4


Query block: Please give the measured growth for this molecule: `Cc1ccc2nc(COc3ccc(C(=O)NNC(=S)NC(=O)c4ccccc4)cc3)[nH]c2c1`
Result block: 45.4

----------
- Test system: U251 CNS
- measurement-description: NCI-60 one-dose screen, 48 h
- test-settings: 10 µM
Compounds without any hit were thinned out: in the full panel of roughly 83,000, 20% have a hit. Activity calls are given as the source filed them. The calls were made as follows: active = growth percent below 10; inactive = the rest.
Respond using exactly one of the listed classes: active, inactive

[[record]]
query_smiles = "COC[C@@H](CC(C)C)N=C1NC(=O)/C(=C/c2ccc3ncsc3c2)N1"
cat = "inactive"


Query block: Tell me the recorded outcome of this test for `COc1ccc(C(=O)/C=C/c2cc(F)cc(C(F)(F)F)c2)cc1S(N)(=O)=O` .
Result block: active

Query block: Give the logged outcome of this assay for the following compound: `CN1CCO/C1=C(/NC(=O)c1ccc(Cl)cc1)[P+](c1ccccc1)(c1ccccc1)c1ccccc1`
Result block: inactive

Query block: Fill in: this test's call for `C#Cc1ccc(S(=O)(=O)Nc2cccc(-c3csc(NC(C)=O)n3)c2)cc1` is ___
Result block: inactive

----------
- Test system: MOLT-4 leukemia
- measurement-description: NCI-60 one-dose screen, 48 h
- test-settings: 10 µM
The panel holds about 83,000 compounds, 20% with a hit somewhere; the sample as a whole holds those more often. Calls of active or inactive are those of the source. Rule for the calls: active = growth percent below 10; inactive = the rest.
Choose the fitting class; nothing outside active, inactive is accepted.

[[record]]
molecule = "OCc1[nH]nc2cc(Nc3ncc4ccc(Br)c(OC5CCC(O)CC5)c4n3)ccc12 (centres undefined)"
cat = "active"

[[record]]
molecule = "O=C(Nc1cccc(C(F)(F)F)c1)c1cncc(C#Cc2cnc3cccnn23)c1"
cat = "inactive"


Query block: What is the recorded call for this molecule in the test? `COc1ccc(CN2[C@H](C(=O)NCCCCCCC(=O)NO)Cc3c([nH]c4ccccc34)[C@H]2C2CC2)cc1`
Result block: inactive

Query block: Per the assay record, what outcome was assigned to `Oc1ccc(/C=C2\CCCc3cc4ccc(O)cc4[o+]c32)c(O)c1` ?
Result block: inactive

Query block: What is the recorded call for this molecule in the test? `O=C1NC(=NC23CC4CC(CC(C4)C2)C3)N/C1=C\c1ccc2ncccc2n1`
Result block: active

Query block: Hi, do you know how `Cc1cccc2cc(-c3cc(-c4ccccc4)nc(=S)[nH]3)c(Cl)nc12` came out in this test?
Result block: inactive

Query block: Just curious, what result did CN(C)c1ccc(/C=C/C(=O)c2ccc(NC(=O)CN3C(=O)NC(C)(c4ccccc4)C3=O)cc2)cc1 (centres undefined) get here?
Result block: inactive

Query block: Please share the test call associated with CCOP(=O)(OCC)O[C@H]1CCC(=O)[C@@H]2[C@H]1[C@H]1C[C@@H]3[C@@]4(C)CCCC(C)(C(=O)OC)[C@@H]4CC[C@@]23C=C1C(C)C (some centres undefined) .
Result block: inactive

Query block: Test call, this molecule: `O=C(NO)c1ccc(CN2CCN(c3nc(-c4ccccc4)c4ccccc4n3)CC2)cc1`
Result block: inactive

Query block: Field: outcome | Entry: `O=C(N/N=C/c1ccc(B(O)O)o1)c1[nH]c2ccc(Br)cc2c1-c1ccccc1`
Result block: inactive
